Below are IC50 values for UniProt:O00329 collected from several publications.

Solved entries:
Q) Entry C[C@H](NC(=O)c1c(N)nn2cccnc12)c1cc2cccc(N3CCN(C)CC3)c2c(=O)n1-c1ccccc1 : reported IC50 = ?
A) > 10000 nM

Q) Entry COc1ncc(-c2cccc3cc([C@H](C)NC(=O)c4c(N)nn5cccnc45)n(-c4ccccc4)c(=O)c23)cn1 : reported IC50 = ?
A) 1000 to 10000 nM

Q) Entry CC(C)N1CCC(Oc2nc([C@H](C)Nc3ncnc4[nH]cnc34)cc3cccc(Cl)c23)CC1 : reported IC50 = ?
A) < 100 nM

Q) Entry CNC(=O)Nc1ccc(-c2nc(N3CCOCC3)nc3c2cnn3CC(C)(C)O)cc1 : reported IC50 = ?
A) > 100 nM

Q) Entry Cc1nn(C(C)c2cc(Cl)c(C#N)c3c2OC(C)CN(CCO)C3)c2ncnc(N)c12 (single isomer, unassigned) : reported IC50 = ?
A) ≤ 100 nM

Q) Entry C[C@H](NC(=O)c1c(N)nn2cccnc12)c1cc2cccc(Cl)c2c(=O)n1C : reported IC50 = ?
A) 100 to 1000 nM

Q) Entry C[C@H](Nc1ncnc2[nH]cnc12)c1cc2cccc(Cl)c2c(C(=O)N2CCC(O)CC2)n1 : reported IC50 = ?
A) < 100 nM

Q) Entry O=C1CCCN1[C@H]1CC[C@H](Nc2cc(-n3c(C(F)F)nc4ccccc43)nc(N3CCOCC3)n2)CC1 : reported IC50 = ?
A) 4.3 nM

Q) Entry CC(C)N1CCc2cc(Nc3ncc4cc(C#N)c(=O)n(C5CCCC5)c4n3)ccc2C1 : reported IC50 = ?
A) 490 nM

Q) Entry CCC(CC)n1c(=O)c(C#N)cc2cnc(Nc3ccc4c(c3)CCNC4)nc21 : reported IC50 = ?
A) 840 nM

Next:
Q) Entry Cc1cccc2cc(Cn3nc(-c4ccc(Cl)c(O)c4)c4c(N)ncnc43)n(C3CCCC3)c(=O)c12 : reported IC50 = ?
A) < 1000 nM

Q) Entry COc1ncc(-c2nc(N3CCOCC3)nc3c(CN4CCC(N5CCCCC5)CC4)c(C)sc23)cc1NS(C)(=O)=O : reported IC50 = ?
A) 4.6 nM

Q) Entry COc1ncc(-c2nc(N3CCOCC3)nc3c(CN4CCNCC4)c(C)sc23)cc1NS(C)(=O)=O : reported IC50 = ?
A) 31 nM

Q) Entry Cc1nn(C(C)c2cc(Cl)c(F)c3c2OCCN(C2CN(C(=O)N(C)C)C2)C3)c2ncnc(N)c12 (stereo not drawn) : reported IC50 = ?
A) ≤ 100 nM

Q) Entry Cc1ccccc1-n1c(Cn2nc(-c3cnc4[nH]ccc4c3)c3c(N)ncnc32)cc2cccc(C)c2c1=O : reported IC50 = ?
A) < 100 nM
